Cited source: ChEMBL document CHEMBL1201862

# test_system: Sentrin-specific protease 7 (Homo sapiens, UniProt Q9BQF6);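 note: Luminescence-based dose-response confirmation of ultra-high-throughput screening hits, measuring inhibition of SENP7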
# Sequence (Q9BQF6 whole entry): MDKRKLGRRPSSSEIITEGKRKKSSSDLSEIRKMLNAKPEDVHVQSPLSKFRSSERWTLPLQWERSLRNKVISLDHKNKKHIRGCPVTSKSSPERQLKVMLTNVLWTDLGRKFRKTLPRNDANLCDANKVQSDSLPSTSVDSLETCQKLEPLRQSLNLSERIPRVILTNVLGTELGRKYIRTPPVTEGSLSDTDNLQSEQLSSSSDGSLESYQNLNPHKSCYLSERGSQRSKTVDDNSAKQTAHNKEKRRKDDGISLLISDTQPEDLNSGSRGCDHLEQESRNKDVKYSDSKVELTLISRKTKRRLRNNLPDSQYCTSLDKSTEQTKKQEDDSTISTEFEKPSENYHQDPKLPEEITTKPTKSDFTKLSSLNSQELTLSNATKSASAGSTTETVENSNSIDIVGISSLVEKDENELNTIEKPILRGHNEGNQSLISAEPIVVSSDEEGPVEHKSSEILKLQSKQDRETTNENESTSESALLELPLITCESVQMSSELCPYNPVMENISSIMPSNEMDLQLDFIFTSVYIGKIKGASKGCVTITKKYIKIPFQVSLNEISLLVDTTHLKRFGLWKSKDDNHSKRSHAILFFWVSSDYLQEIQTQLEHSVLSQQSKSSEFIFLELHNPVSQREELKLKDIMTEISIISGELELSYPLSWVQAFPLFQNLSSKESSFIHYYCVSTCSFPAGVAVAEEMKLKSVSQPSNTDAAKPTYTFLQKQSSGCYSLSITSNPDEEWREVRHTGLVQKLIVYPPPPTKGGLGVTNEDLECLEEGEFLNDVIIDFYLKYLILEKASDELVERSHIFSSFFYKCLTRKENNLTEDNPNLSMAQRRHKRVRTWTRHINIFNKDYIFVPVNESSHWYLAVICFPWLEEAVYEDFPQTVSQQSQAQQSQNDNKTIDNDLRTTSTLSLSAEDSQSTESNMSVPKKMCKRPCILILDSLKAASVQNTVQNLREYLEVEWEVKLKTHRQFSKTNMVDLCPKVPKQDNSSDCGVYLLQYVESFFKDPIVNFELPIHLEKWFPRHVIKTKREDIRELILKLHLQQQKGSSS
# Type: functional
Activity calls are given as the source filed them.
Pick one and only one: 1 = active, -1 = inactive

>>> print(df.to_string())
                             smiles_str                               test_system  category
0  CCOc1cccc(/C=C/c2ccc3cccc(O)c3n2)c1O  Sentrin-specific protease 7 (Homo sapiens, UniProt Q9BQF6)         1
1            Brc1ccc(/C=N/Nc2ccccn2)cc1  Sentrin-specific protease 7 (Homo sapiens, UniProt Q9BQF6)         1
2   O=C(/C=C/c1ccco1)Nc1ccc(N2CCCC2)cc1  Sentrin-specific protease 7 (Homo sapiens, UniProt Q9BQF6)        -1
3     Clc1ccc(-c2nnc(-c3ccccc3Cl)o2)cc1  Sentrin-specific protease 7 (Homo sapiens, UniProt Q9BQF6)         1

Consider now this further compound.
QUERY: Fill in: this test's call for Cc1ccc(SCC(=O)Nc2cc([N+](=O)[O-])ccc2O)cc1 is ___
RESULT: 1
